biological target: Histone deacetylase 1 (Homo sapiens, UniProt Q13547); test: Inhibition of HDAC1 (unknown origin) using compound purified by microgram-scale HPLC work-flow
Sequence (Q13547 whole entry): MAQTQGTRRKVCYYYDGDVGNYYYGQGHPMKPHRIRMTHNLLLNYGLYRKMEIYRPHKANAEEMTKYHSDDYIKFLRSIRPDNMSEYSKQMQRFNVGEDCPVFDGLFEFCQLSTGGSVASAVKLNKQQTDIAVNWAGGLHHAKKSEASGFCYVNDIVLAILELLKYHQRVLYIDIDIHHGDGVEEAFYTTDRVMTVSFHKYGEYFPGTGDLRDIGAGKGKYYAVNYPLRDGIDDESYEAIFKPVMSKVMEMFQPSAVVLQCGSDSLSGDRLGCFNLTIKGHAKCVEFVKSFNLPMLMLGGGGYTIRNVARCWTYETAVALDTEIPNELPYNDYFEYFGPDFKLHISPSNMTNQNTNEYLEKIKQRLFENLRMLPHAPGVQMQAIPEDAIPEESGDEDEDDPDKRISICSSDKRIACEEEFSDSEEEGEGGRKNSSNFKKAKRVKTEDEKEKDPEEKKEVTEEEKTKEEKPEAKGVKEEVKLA
pIC50: −log10 of the molar value.
quantityKind: pIC50

Some entries whose results are on file:
smilesNotation	targetDesc	pIC50
CCC(=O)CCCCC[C@H](NC(=O)[C@H]1CC12CCN(CC)CC2)c1ncc(-c2cc(C(=O)OC)c(F)cc2OC)[nH]1	Histone deacetylase 1 (Homo sapiens, UniProt Q13547)	7.51
CCC(=O)CCCCC[C@H](NC(=O)[C@H]1CC12CCN(C)CC2)c1ncc(-c2ccc(-c3cccnc3)nc2)[nH]1	Histone deacetylase 1 (Homo sapiens, UniProt Q13547)	8.59
CCC(=O)CCCCC[C@H](NC(=O)[C@H]1CC12CCN(CC)CC2)c1ncc(-c2c(F)cc(C(=O)Nc3cc(C(F)(F)F)ccn3)cc2OC)[nH]1	Histone deacetylase 1 (Homo sapiens, UniProt Q13547)	7.66

[A] CCC(=O)CCCCC[C@H](NC(=O)[C@H]1CC12CCN(C)CC2)c1ncc(-c2ccn3ncnc3c2)[nH]1
[B] CCC(=O)CCCCC[C@H](NC(=O)[C@H]1CC12CCN(C)CC2)c1ncc(-c2ccc(C)nc2OC)[nH]1
[C] CCOc1ncc(-c2cnc([C@H](CCCCCC(=O)CC)NC(=O)[C@H]3CC34CCN(C)CC4)[nH]2)cn1
[D] CCC(=O)CCCCC[C@H](NC(=O)[C@H]1CC12CCN(CC)CC2)c1ncc(-c2cccc(C(F)(F)F)c2OC)[nH]1
Order the entries by their reported pIC50, beginning at the minimum. Write the labels, ordered according to the request.
C, A, D, B
(C: 7.00, A: 7.36, D: 7.89, B: 8.49)

====

biological target: UniProt Q92769; assay: Inhibition of HDAC2 (unknown origin) using compound purified by traditional preparative HPLC work-flow
quantityKind: IC50 (nM)

[I] CCC(=O)CCCCC[C@H](NC(=O)[C@H]1CC12CCN(C)CC2)c1ncc(C2=CC(=O)N(C)CC2)[nH]1
[II] CCC(=O)CCCCC[C@H](NC(=O)[C@H]1CC12CCN(C)CC2)c1ncc(-c2ccnc(N3CCOCC3)c2F)[nH]1
[III] CCC(=O)CCCCC[C@H](NC(=O)[C@H]1CC12CCN(C)CC2)c1ncc(-c2ccc(-n3nc(C)cc3C)cc2)[nH]1
# desc sort on IC50 across 3 molecules Write the labels, ordered according to the request.
I, II, III

====

target: Histone deacetylase 1 (Homo sapiens); experiment: Inhibition of HDAC1 (unknown origin) using compound purified by traditional preparative HPLC work-flow
quantityKind: IC50 (nM)

[1] CCC(=O)CCCCC[C@H](NC(=O)[C@H]1CC12CCN(C)CC2)c1ncc(-c2ccn3ncnc3c2)[nH]1
[2] CCC(=O)CCCCC[C@H](NC(=O)[C@H]1CC12CCN(C)CC2)c1ncc(C2=CC(=O)N(C)CC2)[nH]1
[3] CCC(=O)CCCCC[C@H](NC(=O)[C@H]1CC12CCN(C)CC2)c1ncc(-c2cn(C)c3ccccc23)[nH]1
[4] CCC(=O)CCCCC[C@H](NC(=O)[C@H]1CC12CCN(C)CC2)c1ncc(-c2ccnc(N3CCOCC3)c2F)[nH]1
# desc sort on IC50 across 4 compounds Write the labels, ordered according to the request.
2, 1, 4, 3

====

target: Histone deacetylase 2 (Homo sapiens, UniProt Q92769); assay: Inhibition of HDAC2 (unknown origin) using compound purified by microgram-scale HPLC work-flow
Sequence (Q92769 whole entry): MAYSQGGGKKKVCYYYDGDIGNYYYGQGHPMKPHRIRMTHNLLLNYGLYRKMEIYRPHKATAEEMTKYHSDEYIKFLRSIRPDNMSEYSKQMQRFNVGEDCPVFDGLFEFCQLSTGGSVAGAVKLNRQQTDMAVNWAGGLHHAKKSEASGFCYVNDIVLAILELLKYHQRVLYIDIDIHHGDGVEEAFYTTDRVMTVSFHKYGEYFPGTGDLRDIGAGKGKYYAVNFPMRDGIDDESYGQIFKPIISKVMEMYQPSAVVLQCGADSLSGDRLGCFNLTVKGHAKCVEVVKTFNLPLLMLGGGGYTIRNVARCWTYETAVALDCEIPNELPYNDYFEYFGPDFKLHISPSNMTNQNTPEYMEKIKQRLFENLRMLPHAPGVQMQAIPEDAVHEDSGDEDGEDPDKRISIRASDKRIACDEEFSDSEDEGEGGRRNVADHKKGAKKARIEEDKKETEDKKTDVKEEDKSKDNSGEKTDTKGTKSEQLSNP
quantityKind: IC50 (nM)

[A] CCC(=O)CCCCC[C@H](NC(=O)[C@H]1CC12CCN(CC)CC2)c1ncc(-c2cc(C(C)C)c(F)cc2OC)[nH]1
[B] CCC(=O)CCCCC[C@H](NC(=O)[C@H]1CC12CCN(CC)CC2)c1ncc(-c2ccc(C(=O)Nc3cc(C(F)(F)F)ccn3)cc2OC)[nH]1
Which of the two items, A and B , has the greater recorded IC50? // return label of chosen record
A
(A: 279 nM, B: 87 nM)

[A] CCC(=O)CCCCC[C@H](NC(=O)[C@H]1CC12CCN(C)CC2)c1ncc(-c2ccn3ncnc3c2)[nH]1
[B] CCC(=O)CCCCC[C@H](NC(=O)[C@H]1CC12CCN(CC)CC2)c1ncc(C2=CCC(C)N=C2OC)[nH]1 (some centres undefined)
Among A and B , whose measured IC50 is the smaller figure? // return label of chosen record
B

====

target: Histone deacetylase 2 (Homo sapiens, UniProt Q92769); test: Inhibition of HDAC2 (unknown origin) using compound purified by microgram-scale HPLC work-flow
pIC50: −log10 of the molar value.
quantityKind: pIC50

compound	targetDesc	pIC50
CCOC(=O)c1cc2cc(OC)c(-c3cnc([C@H](CCCCCC(=O)CC)NC(=O)[C@H]4CC45CCN(CC)CC5)[nH]3)cc2o1	Histone deacetylase 2 (Homo sapiens, UniProt Q92769)	8.04
CCOc1ncc(-c2cnc([C@H](CCCCCC(=O)CC)NC(=O)[C@H]3CC34CCN(C)CC4)[nH]2)cn1	Histone deacetylase 2 (Homo sapiens, UniProt Q92769)	6.23
CCC(=O)CCCCC[C@H](NC(=O)[C@H]1CC12CCN(C)CC2)c1ncc(-c2ccnc(N3CCOCC3)c2F)[nH]1	Histone deacetylase 2 (Homo sapiens, UniProt Q92769)	6.88
CCC(=O)CCCCC[C@H](NC(=O)[C@H]1CC12CCN(CC)CC2)c1ncc(-c2cc(C#N)ccc2OC)[nH]1	Histone deacetylase 2 (Homo sapiens, UniProt Q92769)	7.21
CCC(=O)CCCCC[C@H](NC(=O)[C@H]1CC12CCN(CC)CC2)c1ncc(-c2c(OC)ccc(F)c2F)[nH]1	Histone deacetylase 2 (Homo sapiens, UniProt Q92769)	5.81

[A] CCOC(=O)C1CC1c1ccc(OC)c(-c2cnc([C@H](CCCCCC(=O)CC)NC(=O)[C@H]3CC34CCN(CC)CC4)[nH]2)c1 (some centres not stated)
[B] CCC(=O)CCCCC[C@H](NC(=O)[C@H]1CC12CCN(CC)CC2)c1ncc(-c2cc(C(=O)OC)c(F)cc2OC)[nH]1
Among A and B , whose measured pIC50 is the smaller figure? // return label of chosen record
B

[I] CCC(=O)CCCCC[C@H](NC(=O)[C@H]1CC12CCN(CC)CC2)c1ncc(-c2cc(C(F)(F)F)ccc2OC)[nH]1
[II] CCC(=O)CCCCC[C@H](NC(=O)[C@H]1CC12CCN(C)CC2)c1ncc(-c2ccc(C(=O)NC3CCOC3)cc2)[nH]1 (some centres not stated)
Among I and II , whose measured pIC50 is the smaller figure? // return label of chosen record
II
(II: 7.15, I: 7.80)

[1] CCC(=O)CCCCC[C@H](NC(=O)[C@H]1CC12CCN(C)CC2)c1ncc(-c2ccc(-c3cccnc3)nc2)[nH]1
[2] CCC(=O)CCCCC[C@H](NC(=O)[C@H]1CC12CCN(CC)CC2)c1ncc(-c2c(F)cc(C(=O)Nc3cc(C(F)(F)F)ccn3)cc2OC)[nH]1
[3] CCC(=O)CCCCC[C@H](NC(=O)[C@H]1CC12CCN(C)CC2)c1ncc(C2=CC(=O)N(C)CC2)[nH]1
Order the entries by their reported pIC50, beginning at the minimum. Write the labels, ordered according to the request.
3, 2, 1
(3: 5.78, 2: 6.49, 1: 7.85)

====

molecular target: Histone deacetylase 2 (Homo sapiens, UniProt Q92769); assay: Inhibition of HDAC2 (unknown origin) using compound purified by traditional preparative HPLC work-flow
pIC50: −log10 of the molar value.
quantityKind: pIC50

Some entries whose results are on file:
compound	targetDesc	pIC50
CCC(=O)CCCCC[C@H](NC(=O)[C@H]1CC12CCN(C)CC2)c1ncc(-c2ccc(C(=O)NC3CCOC3)cc2)[nH]1 (stereo partly drawn)	Histone deacetylase 2 (Homo sapiens, UniProt Q92769)	7.27
CCC(=O)CCCCC[C@H](NC(=O)[C@H]1CC12CCN(C)CC2)c1ncc(-c2ccn3ncnc3c2)[nH]1	Histone deacetylase 2 (Homo sapiens, UniProt Q92769)	6.46
CCC(=O)CCCCC[C@H](NC(=O)[C@H]1CC12CCN(C)CC2)c1ncc(-c2ccc3[nH]c4ccccc4c3c2)[nH]1	Histone deacetylase 2 (Homo sapiens, UniProt Q92769)	8.96
CCC(=O)CCCCC[C@H](NC(=O)[C@H]1CC12CCN(C)CC2)c1ncc(-c2ccc(-c3cccnc3)nc2)[nH]1	Histone deacetylase 2 (Homo sapiens, UniProt Q92769)	7.52

[I] CCC(=O)CCCCC[C@H](NC(=O)[C@H]1CC12CCN(C)CC2)c1ncc(-c2cn(C)c3ccccc23)[nH]1
[II] CCOc1ncc(-c2cnc([C@H](CCCCCC(=O)CC)NC(=O)[C@H]3CC34CCN(C)CC4)[nH]2)cn1
[III] CCC(=O)CCCCC[C@H](NC(=O)[C@H]1CC12CCN(C)CC2)c1ncc(-c2cnc3cccnc3c2)[nH]1
[IV] CCC(=O)CCCCC[C@H](NC(=O)[C@H]1CC12CCN(C)CC2)c1ncc(-c2ccc(C)nc2OC)[nH]1
Please list these compounds in decreasing order of pIC50. Write the labels, ordered according to the request.
I, IV, III, II

Values were extracted from ChEMBL document CHEMBL4680369.
